Measured On: human Cot/Tpl2 kinase (Homo sapiens)
Construct: human Cot/Tpl2 kinase construct encoding residues 30-398; 6His (N); made in house; host or cells: Sf9 insect cells, baculovirus system (BD Biosciences)
Protocol Description: Tpl2/Cot kinase assay: GST-MEK1 phosphorylation detected by ELISA (DELFIA Eu)
Assay type: biochemical
Test Parameters: Table 2; Tpl2/Cot kinase, GST-MEK1 substrate, 50 uM ATP
Each entry below carries its recorded pIC50.
pIC50 is defined as minus the log10 of a concentration measured in mol/L.

Observe how each entry below is paired with its result.
1. CC(C)N1CCC(CCn2cc(CNc3cc(Br)c4ncc(C#N)c(Nc5ccc(F)c(Cl)c5)c4c3)nn2)CC1 [Example 569]    7.24
2. N#Cc1cnc2c(Cl)cc(NCc3cn(Cc4cccnc4)cn3)cc2c1Nc1ccc(F)c(Cl)c1 [Example 553]    9.15
3. CNCCn1cc(CNc2cc(Cl)c3ncc(C#N)c(Nc4ccc(F)c(Cl)c4)c3c2)nn1 [Example 513]    7.54

Sample N#Cc1cnc2c(Br)cc(NCc3cncn3O)cc2c1Nc1ccc(F)c(Cl)c1 [Example 436] ; pIC50 observed: 6.82

Sample N#Cc1cnc2c(Cl)cc(NC3CCCC3n3cc(CCO)nn3)cc2c1Nc1ccc(F)c(Cl)c1 (centres unmarked) [Example 635] ; pIC50 observed: 7.17

Sample CC(C)(C)Nc1c(C#N)cnc2ccc(NCc3cccc[n+]3[O-])cc12 [Example 406] ; pIC50 observed: 5.27

Sample N#Cc1cnc2c(Cl)cc(NCC(=O)NCc3ccncc3)cc2c1Nc1ccc(F)c(Cl)c1 [Example 600] ; pIC50 observed: 7.32

Sample N#Cc1cnc2ccc(NCc3ccc(=O)[nH]c3)cc2c1Nc1ccc(F)c(F)c1 [Example 341] ; pIC50 observed: 6.40

Sample Cc1cc(CNc2cc(Cl)c3ncc(C#N)c(Nc4ccc(F)c(Cl)c4)c3c2)n[nH]1 [Example 429] ; pIC50 observed: 7.00

Sample Cc1nc(CNc2cc(Cl)c3ncc(C#N)c(Nc4ccc(F)c(Cl)c4)c3c2)c(C)[nH]1 [Example 431] ; pIC50 observed: 6.66

Sample CC(O)Cn1cc(CNc2cc(Br)c3ncc(C#N)c(Nc4ccc(F)c(Cl)c4)c3c2)nn1 (centres unmarked) [Example 487] ; pIC50 observed: 7.96

###

Each entry below carries its recorded pIC50.
Measured On: human Cot/Tpl2 kinase (Homo sapiens)
Construct: human Cot/Tpl2 kinase construct encoding residues 30-398; 6His (N); made in house; host or cells: Sf9 insect cells, baculovirus system (BD Biosciences)
Protocol Description: Tpl2/Cot kinase assay: GST-MEK1 phosphorylation detected by ELISA (DELFIA Eu)
Type: biochemical
Test Parameters: 0.4 nM Tpl2, 35 nM GST-MEK1, 50 uM ATP, 1 h at 30° C.
pIC50: −log10 of the molar value.

Observe how each entry below is paired with its result.
1. CCOc1cc2ncc(C#N)c(Nc3ccc(F)c(Cl)c3)c2cc1NCc1cnc[nH]1    < 4.40
2. CN(C)C(=O)c1cc(NCc2ccco2)cc2c(Nc3ccc(F)c(Cl)c3)c(C#N)cnc12    < 4.40

Now for another entry.
Sample Cc1cccc(CNc2cc(C(=O)N(C)C)c3ncc(C#N)c(Nc4ccc(F)c(Cl)c4)c3c2)c1 ; pIC50 observed: < 4.40

###

Measured On: human Cot/Tpl2 kinase (Homo sapiens, UniProt P41279)
Construct: human Cot/Tpl2 kinase construct encoding residues 30-398; 6His (N); made in house; host or cells: Sf9 insect cells, baculovirus system (BD Biosciences)
Sequence (P41279 30-398): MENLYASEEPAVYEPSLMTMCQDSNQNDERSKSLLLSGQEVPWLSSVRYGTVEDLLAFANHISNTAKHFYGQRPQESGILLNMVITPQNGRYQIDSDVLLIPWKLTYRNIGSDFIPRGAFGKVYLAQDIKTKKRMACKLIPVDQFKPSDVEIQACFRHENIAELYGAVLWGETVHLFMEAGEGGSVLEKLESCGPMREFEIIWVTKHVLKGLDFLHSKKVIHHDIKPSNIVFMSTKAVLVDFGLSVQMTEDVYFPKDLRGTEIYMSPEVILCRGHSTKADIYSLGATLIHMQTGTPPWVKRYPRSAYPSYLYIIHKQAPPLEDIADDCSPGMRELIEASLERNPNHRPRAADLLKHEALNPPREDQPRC
Protocol Description: Tpl2/Cot kinase assay: GST-MEK1 phosphorylation detected by ELISA (DELFIA Eu)
Type: biochemical
Test Parameters: Tpl2/Cot kinase, GST-MEK1 substrate, 50 uM ATP
Each entry below carries its recorded log10(IC50).
Scale: decimal log of IC50, IC50 in µM.

1) CC(C)N1CCC[C@H]1Cn1cc(CNc2cc(Cl)c3ncc(C#N)c(Nc4ccc(F)c(Cl)c4)c3c2)nn1    -1.47
2) CCN(C[C@@H]1CCCN1CC)c1cc(Cl)c2ncc(C#N)c(Nc3ccc(F)c(Cl)c3)c2c1    0.08
3) N#Cc1cnc2c(Cl)cc(NCc3ccncc3)cc2c1Nc1ccc(F)c(Cl)c1    -1.66
4) CC(=O)N1CCCC(CNc2cc(Cl)c3ncc(C#N)c(Nc4ccc(F)c(Cl)c4)c3c2)C1 (stereo not shown)    -0.21
5) CC(=O)Nc1cc(Br)c2ncc(C#N)c(Nc3ccc(F)c(Cl)c3)c2c1    0.67
6) CN(CCCn1cc(CNc2cc(Cl)c3ncc(C#N)c(Nc4ccc(F)c(Cl)c4)c3c2)nn1)C1CCCCC1    -2.74

Sample COCCOCCn1cc(CNc2cc(Cl)c3ncc(C#N)c(Nc4ccc(F)c(Cl)c4)c3c2)nn1 ; log10(IC50) observed: -1.68

Sample N#Cc1cnc2c(Cl)cc(NCc3cn(CCCN4CCCNCC4)nn3)cc2c1Nc1ccc(F)c(Cl)c1 ; log10(IC50) observed: -1.13

Sample CN(C)C(=O)N1CCC(CCn2cc(CNc3cc(Cl)c4ncc(C#N)c(Nc5ccc(F)c(Cl)c5)c4c3)nn2)CC1 ; log10(IC50) observed: -1.72

Sample N#Cc1cnc2c(Br)cc(NCc3cn(CCOCCOCCO)nn3)cc2c1Nc1ccc(F)c(Cl)c1 ; log10(IC50) observed: -0.85

###

Measured On: human Cot/Tpl2 kinase (Homo sapiens, UniProt P41279)
Construct: human Cot/Tpl2 kinase construct encoding residues 30-398; 6His (N); made in house; host or cells: Sf9 insect cells, baculovirus system (BD Biosciences)
Protocol Description: Tpl2/Cot kinase assay: GST-MEK1 phosphorylation detected by ELISA (DELFIA Eu)
Format: biochemical
Test Parameters: Tpl2/Cot kinase, GST-MEK1 substrate, 50 uM ATP
pIC50: −log10 of the molar value.
Value Type: pIC50

Observe how each entry below is paired with its result.
1. N#Cc1cnc2c(Br)cc(NCc3cn(COCc4ccccc4)nn3)cc2c1Nc1ccc(F)c(Cl)c1 [Example 805]    < 5.52
2. N#Cc1cnc2c(Cl)cc(NCc3cn(Cc4cncnc4)nn3)cc2c1Nc1ccc(F)c(Cl)c1 [Example 879]    8.96

Now for another entry.
human Cot/Tpl2 kinase (Homo sapiens, UniProt P41279) data for N#Cc1cnc2c(Cl)cc(NCc3cn(Cc4ccc(C(F)(F)F)cc4)nn3)cc2c1Nc1ccc(F)c(Cl)c1 [Example 756] ; its pIC50: < 5.52

###

Measured On: human Cot/Tpl2 kinase (Homo sapiens, UniProt P41279)
Construct: human Cot/Tpl2 kinase construct encoding residues 30-398; 6His (N); made in house; host or cells: Sf9 insect cells, baculovirus system (BD Biosciences)
Protocol Description: Tpl2/Cot kinase assay: GST-MEK1 phosphorylation detected by ELISA (DELFIA Eu)
Assay type: biochemical
Test Parameters: Table 2; Tpl2/Cot kinase, GST-MEK1 substrate, 50 uM ATP
Under this convention, satisfied denotes IC50 strictly below 0.07 µM and not satisfied denotes IC50 at or above 0.07 µM.

1) N#Cc1cnc2c(Br)cc(NCc3cn(COCc4ccccc4)nn3)cc2c1Nc1ccc(F)c(Cl)c1    not satisfied
2) N#Cc1cnc2c(Br)cc(NCc3cn(CC(F)(F)F)nn3)cc2c1Nc1ccc(F)c(Cl)c1    not satisfied
3) N#Cc1cnc2c(Cl)cc(NCc3cn(CCCN4CCCNCC4)nn3)cc2c1Nc1ccc(F)c(Cl)c1    not satisfied
4) CC(C)N1CCC(Cn2cc(CNc3cc(Br)c4ncc(C#N)c(Nc5ccc(F)c(Cl)c5)c4c3)nn2)CC1    satisfied
5) N#Cc1cnc2c(Br)cc(NCc3n[nH]c4c3CCCC4)cc2c1Nc1ccc(F)c(Cl)c1    not satisfied

Does Cc1c(CNc2ccc3ncc(C#N)c(Nc4ccc(F)c(Cl)c4)c3c2)ncn1CCN1CCOCC1 have IC50 strictly under 0.07 µM? satisfied

Does CS(=O)(=O)c1cccc(CNc2ccc3ncc(C#N)c(NC4CCCC4)c3c2)c1 have IC50 strictly under 0.07 µM? not satisfied

Does N#Cc1cnc2ccc(NCc3ccccn3)cc2c1NC1CCCCC1 have IC50 strictly under 0.07 µM? not satisfied

###

Measured On: human Cot/Tpl2 kinase (Homo sapiens, UniProt P41279)
Construct: human Cot/Tpl2 kinase construct encoding residues 30-398; 6His (N); made in house; host or cells: Sf9 insect cells, baculovirus system (BD Biosciences)
Protocol Description: Tpl2/Cot kinase assay: GST-MEK1 phosphorylation detected by ELISA (DELFIA Eu)
Assay type: biochemical
Test Parameters: 0.4 nM Tpl2, 35 nM GST-MEK1, 50 uM ATP, 1 h at 30° C.
pIC50: −log10 of the molar value.
Value Type: pIC50

1) CN(C)C(=O)c1cc(NCc2cnc[nH]2)cc2c(Nc3ccc(F)c(Cl)c3)c(C#N)cnc12    6.89
2) N#Cc1cnc2c(Br)cc(NCc3nc(-c4ccccc4)n[nH]3)cc2c1Nc1ccc(F)c(Cl)c1    < 4.40

Now for another entry.
Sample C[C@H](Nc1ccc2ncc(C#N)c(Nc3ccc(F)c(Cl)c3)c2c1)c1ccccn1 ; pIC50 observed: < 4.40
